testTarget: T1, FX activation peptide 12-mer TWKPYDAADLDP (human)
T1 peptide: TWKPYDAADLDP-biotin
assayOverview: peptide ELISA
Ends that are not written are not given here.
assayMetric: ELISA signal relative to background
No unit in the answer, only the number.

Challenge: What value of ELISA signal relative to background has been recorded for this entry: Nb 702C12 (VHH, monovalent Nanobody; not shown: C-terminal FLAG3 and HIS6 tag) VHH: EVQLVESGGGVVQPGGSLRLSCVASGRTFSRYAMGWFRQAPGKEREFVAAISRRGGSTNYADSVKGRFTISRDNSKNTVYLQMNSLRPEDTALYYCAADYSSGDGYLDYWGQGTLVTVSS
Response given: 1.13
